Biological target: hMRGX2 (CHO-K1 cells overexpressing MRGX2) (Homo sapiens (Human))
Sequence (Q96LB1 whole entry): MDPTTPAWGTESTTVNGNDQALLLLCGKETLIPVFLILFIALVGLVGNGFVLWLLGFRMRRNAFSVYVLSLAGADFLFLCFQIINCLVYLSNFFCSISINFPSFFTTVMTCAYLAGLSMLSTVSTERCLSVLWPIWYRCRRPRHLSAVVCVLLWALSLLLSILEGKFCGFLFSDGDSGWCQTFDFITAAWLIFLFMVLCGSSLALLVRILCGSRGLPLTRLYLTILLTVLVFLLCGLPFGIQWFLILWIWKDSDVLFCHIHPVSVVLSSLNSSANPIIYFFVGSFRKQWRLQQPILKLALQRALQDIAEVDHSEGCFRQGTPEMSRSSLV
Experiment: In vitro inhibition (EC50) of intracellular calcium flux, FLIPR Tetra, substance P stimulation
Type: cell-based
Conditions: stimulated with MRGX2 ligand substance P, FLIPR Calcium 5, read-out: hMRGX2 Cellular Potency (pEC50) (converted)
# EC50 per record follows
I only need the number, in nM, no unit after it.

See these solved cases before continuing.
                                   molecule  quantity_measured  measured_number
0  COC1CC(NC2=NS(=O)(=O)c3cccc(-c4cccc(F)c4Cl)c3N2)C1 (centres unmarked)               EC50              394
1  CNC1=NS(=O)(=O)c2cc(C)cc(-c3cccc(F)c3Cl)c2N1               EC50              589
2  Cc1cnc(CNC2=NS(=O)(=O)c3cccc(-c4cccc(F)c4Cl)c3N2)o1               EC50             51.9
3  COC(C)CNC1=NS(=O)(=O)c2cccc(-c3cc(F)ccc3F)c2N1 (centres unmarked)               EC50              244
4  COC(C)CNC1=NS(=O)(=O)c2cccc(-c3ccccc3Cl)c2N1 (centres unmarked)               EC50             76.2
5  CC(C)NC1=NS(=O)(=O)c2cccc(-c3cccc(F)c3Cl)c2N1               EC50              229

hMRGX2 (CHO-K1 cells overexpressing MRGX2) (Homo sapiens (Human)) / EC50 / COCc1cccc2c1NC(Nc1ccc(C(C)C)cc1)=NS2(=O)=O : value?
474

Item: O=S1(=O)N=C(NCc2nccs2)Nc2c(-c3cccc(F)c3Cl)cc(F)cc21
20

* * *

Molecular target: hMRGX2 (CHO-K1 cells overexpressing MRGX2) (Homo sapiens (Human))
Test: In vitro inhibition (EC50) of intracellular calcium flux, FLIPR Tetra, substance P stimulation
Format: cell-based
Conditions: stimulated with MRGX2 ligand substance P, FLIPR Calcium 5, read-out: hMRGX2 Cellular Potency (pEC50) (converted)
Entries and their measured EC50 follow.
Report the figure in nM without appending any unit label.

Param item = CCNC1=NS(=O)(=O)c2cc(F)cc(-c3cccc(F)c3Cl)c2N1 ; retrieve measured EC50.
21.6

* * *

This listing pairs molecules with measured EC50.
Target: hMRGX2 (CHO-K1 cells overexpressing MRGX2) (Homo sapiens (Human))
Assay: In vitro inhibition (EC50) of intracellular calcium flux, FLIPR Tetra, substance P stimulation
Type: cell-based
Details: stimulated with MRGX2 ligand substance P, FLIPR Calcium 5, read-out: hMRGX2 Cellular Potency (pEC50) (converted)
Field: numeric (nM). Do not append units.

Field: example entries. Status: answers known.
                                   molecule  quantity_measured  unit_tag  measured_number
0  CNC1=NS(=O)(=O)c2cccc(-c3cccc(F)c3F)c2N1               EC50        nM              389
1  COCCNC1=NS(=O)(=O)c2cccc(-c3ccccc3C(F)(F)F)c2N1               EC50        nM             64.4
2  O=S1(=O)N=C(NCCc2ccccn2)Nc2c(-c3cc(F)cc(F)c3)cccc21               EC50        nM              897
3  CC(NC1=NS(=O)(=O)c2cc(F)cc(-c3cccc(F)c3Cl)c2N1)c1nccs1 (stereo not shown)               EC50        nM              110
4  O=S1(=O)N=C(NCC2CCC2)Nc2c(-c3cc(F)cc(F)c3)cccc21               EC50        nM              384

Query (molecule): N#Cc1c(F)cccc1-c1cccc2c1NC(NCc1ncco1)=NS2(=O)=O ; field requested: EC50
61.5

Please answer likewise for N#Cc1ccccc1-c1cccc2c1NC(NCC1CCC1)=NS2(=O)=O
162

Next molecule up: O=S1(=O)N=C(NCc2ncccc2F)Nc2c(-c3ccccc3Cl)cc(F)cc21
10.3

Also check Cc1cccc(CNC2=NS(=O)(=O)c3cccc(-c4cc(F)cc(F)c4)c3N2)n1
368

Another: CC(C)c1ccc(NC2=NS(=O)(=O)c3cccc(-c4cnn(C)c4)c3N2)cc1
132

Another molecule: CNC1=NS(=O)(=O)c2ccc(F)c(-c3ccccc3Cl)c2N1
190

Source of measurements: patent US12247015B2
